Target: Mitogen-activated protein kinase 9 (Homo sapiens, UniProt P45984)
Sequence (P45984 whole entry, the tested form may be a part): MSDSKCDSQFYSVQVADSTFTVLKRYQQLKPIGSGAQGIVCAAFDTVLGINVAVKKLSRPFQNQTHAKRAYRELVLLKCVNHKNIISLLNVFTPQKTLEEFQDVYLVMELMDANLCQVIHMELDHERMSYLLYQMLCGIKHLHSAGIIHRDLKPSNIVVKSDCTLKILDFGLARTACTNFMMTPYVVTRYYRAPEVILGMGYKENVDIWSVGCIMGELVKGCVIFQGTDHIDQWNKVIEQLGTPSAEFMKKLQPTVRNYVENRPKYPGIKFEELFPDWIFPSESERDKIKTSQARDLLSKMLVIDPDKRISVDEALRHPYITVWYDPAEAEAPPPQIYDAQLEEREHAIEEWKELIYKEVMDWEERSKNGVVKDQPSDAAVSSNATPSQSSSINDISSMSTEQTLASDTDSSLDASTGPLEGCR
Assay: Inhibition of His6-tagged JNK2 (unknown origin) assessed as reduction in c-Jun phosphorylation using GST-c-Jun (1 to 79 residues) and [gamma32P]ATP incubated for 1 hr by scintillation counting assay
pIC50: −log10 of the molar value.
Listed here are compounds together with their documented pIC50.
assayReadout: pIC50

substanceSmiles: NC(=O)c1ccc2[nH]nc(-c3cc4ccccc4o3)c2c1
assayReadout: pIC50
result: 5.00 to 6.00

substanceSmiles: CC(C)c1n[nH]c(-c2ccc3[nH]nc(-c4ccc(F)cc4)c3c2)n1
assayReadout: pIC50
result: 5.00 to 6.30

substanceSmiles: CC(C)c1cccc(-c2n[nH]c3ccc(C(N)=O)cc23)c1
assayReadout: pIC50
result: ≥ 5.00

substanceSmiles: NC(=O)c1ccc2[nH]nc(-c3cccc(NC(=O)c4ccco4)c3)c2c1
assayReadout: pIC50
result: 5.00 to 6.30

substanceSmiles: CC(C)C(=O)Nc1cccc(-c2n[nH]c3ccc(-c4nc[nH]n4)cc23)c1
assayReadout: pIC50
result: 5.00 to 6.30

substanceSmiles: O=C(NOCc1ccccc1)c1ccc2[nH]nc(-c3ccc(F)cc3)c2c1
assayReadout: pIC50
result: ≥ 5.00

substanceSmiles: NC(=O)c1ccc2[nH]nc(-c3cccc(NC(=O)c4cccc(O)c4)c3)c2c1
assayReadout: pIC50
result: 5.00 to 6.00

substanceSmiles: COc1ccc(-c2n[nH]c3ccc(-c4ncn[nH]4)cc23)cc1
assayReadout: pIC50
result: 5.00 to 6.00

substanceSmiles: O=C(N[C@H]1CCc2ccccc21)c1cccc(-c2n[nH]c3ccc(-c4ncn[nH]4)cc23)c1
assayReadout: pIC50
result: 5.00 to 6.30
